The values you see were collected from patent US20240327505A1.

tgt: SARS-CoV-2 spike S2 protein (SARS-CoV-2, UniProt P0DTC2 686-1213)

>  <binder>
AB-009363 (antibody, V domains shown) VH: EVQLLESGGGLVQPGGSLRLSCAASGFTFSSFAMTWIRQAPGKGLEWISAIGGDGGATYYVDSIKGRFTISRDNSKNTVYLHMNGLRVEDTAVYYCATPSPTRYSWGQGTLVTVSS VL: DIVMTQSPDSLAVSLGERATLNCKSSQSVLYSSNNKNYLAWYQQKPGQPPKLLFYWASTRQSGVPDRFSGSGSGTDFTLTISSLQAEDGAVYYCQQYHKTPHTFGQGTKLEIK

>  <measure_unit>
s⁻¹

>  <koff>
0.0016

$$$$
>  <binder>
AB-009083 (antibody, V domains shown) VH: EVHLLESGGGLVQPGGSLTLTCAASGFSFGNYVMGWVRQAPGKGLEWVSSIFGSGANPHYGGSVKGRFTISRDNSQNTLFLQMDSLTAEDTAVYYCARDGGTMVGGIITGGFNYFDSWGQGTLVTVSS VL: EIVLTQSPASLSLSPGGWATLSCRASRSIGNSLAWYQQRPGQAPRLLIYDASNRATGIPARFSGSGSGTDFTLTISSLEPEDFAIYYCQQRNSWPPLYTFGQGTKLEIK

>  <measure_unit>
s⁻¹

>  <koff>
4.95e-07

$$$$
